Experimental Protocol: ATG_SREBP_CIS: Attagene CIS-FACTORIAL HepG2 Assay for human Sterol Regulatory Element Binding (SREBP) (AID 2282962)
Experimental Parameters: HepG2 Attagene cis-factorial SREBP reporter, mRNA; actives raise or lower the signal
Activity calls are given as the source filed them. How the source made its calls: active means hit-call score of the fitted dose curve at least 0.9, where 1 is the maximum; inactive means score below 0.9.
The reply should be one of these categories: Y (active), N (inactive)

Answered cases to consult:
Compound	Classification
CC(=O)Oc1ccc(C(C)=O)cc1	N
O=C(O)C(c1ccc(Cl)cc1)c1ccc(Cl)cc1	N
CCN(Cc1cccc(S(=O)(=O)O)c1)c1ccc(C(=C2C=CC(=[N+](CC)Cc3cccc(S(=O)(=O)[O-])c3)C=C2)c2ccccc2)cc1	N
Cc1ccc2oc(=O)ccc2c1	N
Cc1cccc(C(=O)O)c1	N
c1cc(C(c2ccc(OCC3CO3)cc2)C(c2ccc(OCC3CO3)cc2)c2ccc(OCC3CO3)cc2)ccc1OCC1CO1 (stereo not given)	N

What outcome does the record of this test show for C[C@]12C=CC(=O)C=C1CC[C@@H]1[C@@H]2[C@@H](O)C[C@@]2(C)[C@H]1CC[C@]2(O)C(=O)CO ?
N

What outcome does the record of this test show for Nc1ccc2cc3ccccc3cc2c1 ?
N

What outcome does the record of this test show for COc1ccc([C@@H]2CC(=O)c3c(O)cc(O[C@@H]4O[C@H](CO[C@@H]5O[C@@H](C)[C@H](O)[C@@H](O)[C@H]5O)[C@@H](O)[C@H](O)[C@H]4O)cc3O2)cc1OC ?
N
